assay-overview: Quantitative High-Throughput drug screen in 47 multiple myeloma cell lines against the NCATS MIPE library collection: Karpas25_ECACC cell viability assay (AID 1918968; note: nearly all actives have a fitted effect of over 35% in size)
experimental-conditions: Karpas25 myeloma viability, CellTiter-Glo ATP, 48 h; series mostly up to 45.8 µM
Text: PI: Beverly A. Mock Ph.D. Laboratory of Cancer Biology and Genetics, Center for Cancer Research, National Cancer Institute, National Institute of Health, Bethesda, Maryland […] 5; Detector; 425V; Luminescence; Viewlux PerkinElmer. […] 1. […] Briefly, the corresponding myeloma cell lines were screened in 1,536-well plates with 500 cells, 5-uL per well for inhibition of cell viability (assessed by measuring ATP levels with CellTiterGlo). […]
Inconclusive results are not listed. Active and inactive are the calls of the source. Calls come from the whole dose curve; as a rule, active = well fitted cell-killing curve with a large enough effect; inconclusive = small, poorly fitted or top-dose-only effect, or effect the other way; inactive = no such curve, though single readings can be large or run the other way.
Lab note: assign the record to one of active, inactive

Please review the entries below; each comes with its answer.
CNC[C@@H](O)[C@@H](O)[C@H](O)[C@H](O)CO : active
Clc1ccc(C(Cn2ccnc2)OCc2c(Cl)cccc2Cl)c(Cl)c1 (stereo not drawn) : active
CCN(CC)CCOc1ccc(Cc2ccccc2)cc1 : active
CC(=O)O[C@H]1C(=O)[C@@]2(C)C([C@H](OC(=O)c3ccccc3)[C@]3(O)C[C@H](OC(=O)[C@H](O)[C@@H](NC(=O)c4ccccc4)c4ccccc4)C(C)=C1C3(C)C)[C@]1(OC(C)=O)CO[C@@H]1C[C@@H]2O (stereo partly drawn) : inactive
NCCCCNCCCN : active

Lab log entry: `O=c1ccc2ccc(O)c(O)c2o1` — outcome as called in the assay? active

Name the outcome recorded for O=C(OC1C[C@H]2CC[C@@H](C1)[N+]21CCCC1)C(O)(c1ccccc1)c1ccccc1 (stereo partly drawn) in the assay. inactive

For Nc1ccn([C@@H]2O[C@H](CO)[C@@H](O)C2O)c(=O)n1 (stereo partly drawn) , what call appears in the results of this test? active

Look up the recorded call for `CCCOc1ccc2nc(NC(=O)OC)[nH]c2c1` in this test. active

Please state the recorded outcome for this compound: `Cc1cc(=O)oc2cc(O)ccc12` active

###

For each of the compounds below, state its Potency.
assay-overview: qHTS for differential inhibitors of proliferation of Plasmodium falciparum line 7G8 (AID 1815);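 note: potency is the fitted concentration of half-maximal effect; parasite growth measured after three days of incubation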
experimental-conditions: Plasmodium falciparum 7G8 proliferation inhibition; series mostly up to 28.7 µM
Records with an inconclusive call do not appear. Active and inactive are the calls of the source. The call rests on the fitted dose curve; in most records, active means well fitted curve in the direction sought with a large enough effect; inconclusive means small, poorly fitted or top-dose-only effect, or another doubt; inactive means no such curve, though single readings can be large or run the other way.

For orientation, consider the following solved cases.
CC(C)c1ccc2c(c1)c(SC(C)(C)C)c(CC(C)(C)C(=O)O)n2Cc1ccc(Cl)cc1 : 5.01 µM (active)
CC1(C)C(=O)N(CCN2CCC(C(=O)c3ccc(F)cc3)CC2)c2ccccc21 : 6.31 µM (active)

Then there is this compound:
Consider the compound `O=C1c2ccccc2-c2n[nH]c3cccc1c23` and give its measured Potency. 10 µM (active)

###

test-system: Phospholipid hydroperoxide glutathione peroxidase GPX4 (Homo sapiens)
assay-overview: Primary qHTS Assay for Inhibitors of Recombinant Selenoprotein Glutathione Peroxidase 4 (GPX4) (AID 1845192); note: nearly all actives have a fitted effect of over 65% in size
experimental-conditions: recombinant GPX4, GR-coupled NADPH fluorescence, 15 min; series mostly up to 50 µM
Description: Assay Provider: Elias S.J. Arner MD PhD. Department of Medical Biochemistry and Biophysics Karolinska Institutet, Solna, Stockholm, Sweden […] 6; Detection; Fluorescence; ViewLux microplate reader, excitation 340 nm and emission 450 nm. […] 8; Detection; Fluorescence; ViewLux microplate reader, excitation 340 nm and emission 450 nm. […] 6. Initial fluorescence readout (t=0) at 340/450 nm was measured using a ViewLux multimodal detector (PerkinElmer, Waltham, MA). […]
Results filed as inconclusive are left out. Active and inactive are the calls of the source. The call rests on the fitted dose curve; in most records, active means well fitted inhibition curve with a large enough effect; inconclusive means small, poorly fitted or top-dose-only effect; inactive means flat fitted curve, though single readings scatter.
In this exercise, the only acceptable responses are true (1) (active), false (0) (inactive)

Test call for this molecule, please: Cc1ccc(S(=O)(=O)NC(=O)NN2CC3CCCC3C2)cc1 (stereo not drawn) false (0)

Short answer needed: outcome of this test for `CC1(C)CCC(C)(C)c2cc(NC(=O)c3ccc(C(=O)O)cc3)ccc21` ? true (1)

Recorded call for `Nc1cc(C(Cl)=C(Cl)Cl)c(S(N)(=O)=O)cc1S(N)(=O)=O` ? false (0)

Name the outcome recorded for `CCCCCCCCCCCCCCCCCCCCCCO` in the assay. false (0)

Which outcome was assigned to O=C(c1ccccc1)c1ccc2n1CCC2C(=O)O (stereo not drawn) in this test? false (0)

###

assay-overview: Quantitative High-Throughput drug screen in 47 multiple myeloma cell lines against the NCATS MIPE library collection: KMS28BM_JCRB cell viability assay (AID 1919874); note: nearly all actives have a fitted effect of over 35% in size; note: potency is the fitted concentration of half-maximal effect
experimental-conditions: CellTiter-Glo ATP, 48 h; series mostly up to 45.8 µM
Records with an inconclusive call do not appear. Calls of active or inactive are those of the source. Calls come from the whole dose curve; as a rule, active = well fitted cell-killing curve with a large enough effect; inconclusive = small, poorly fitted or top-dose-only effect, or effect the other way; inactive = no such curve, though single readings can be large or run the other way.
test-readout: Potency

c1ccc2[nH]c(-c3cscn3)nc2c1 : inactive
Cc1c(C(=O)NN2CCCCC2)nn(-c2ccc(Cl)cc2Cl)c1-c1ccc(Cl)cc1 : 23.5 µM (active)
CC1Cc2ccccc2N1NC(=O)c1ccc(Cl)c(S(N)(=O)=O)c1 (centres undefined) : 1.05 µM (active)
O=c1ccc2ccc(O)c(O)c2o1 : inactive

###

assay-overview: qHTS of pediatric cancer cell lines to identify multiple opportunities for drug repurposing: Primary screen for Rh18 cells (AID 1347102); note: nearly all actives have a fitted effect of over 65% in size
experimental-conditions: Rh18 rhabdomyosarcoma viability, CellTiter-Glo luminescence, 48 h; series mostly up to 46 µM
Results filed as inconclusive are left out. Activity calls are given as the source filed them. The call rests on the fitted dose curve; in most records, active means well fitted cell-killing curve with a large enough effect; inconclusive means small, poorly fitted or top-dose-only effect; inactive means flat fitted curve, though single readings scatter.
I would appreciate it if you answered using one of these outcomes: active, inactive

# example entries with known answers
CN(C)C(=O)COC(=O)Cc1ccc(OC(=O)c2ccc(N=C(N)N)cc2)cc1 : inactive
Cc1ccc(Nc2nccc(N(C)c3ccc4c(C)n(C)nc4c3)n2)cc1S(N)(=O)=O : active
O=C(CCc1ccc(O)cc1)c1c(O)cc(O)cc1O : inactive
NNc1nncc2ccccc12 : inactive
CCC(C)(Oc1ccc(C2(c3ccc(OC(C)(CC)C(=O)O)cc3)CCCCC2)cc1)C(=O)O (configuration not stated) : inactive

Pending compound:
For `CS(=O)(=O)OCCCCOS(C)(=O)=O` , which call appears in the assay record? inactive

###

I'd appreciate it if you could supply Z-AUC values for the items below.
assay-overview: qHTS drug screen for cell cycle checkpoint inhibitors in PARPi-resistant BRCA-mutant ovarian cancer cell lines. (AID 1963452)
experimental-conditions: PEO1/OlaR viability, CellTiter-Glo luminescence, 96 h; hits give low values
Peptide text beside a SMILES is read from it.
Give bare numbers.

As a guide, the following entries are already answered.
CCOC(=O)C1=C[C@@H](OC(CC)CC)[C@H](NC(C)=O)[C@@H](N)C1 : 0.109
Cc1ncc([N+](=O)[O-])n1CC(C)O (stereo not drawn) : 0.202
COc1cc(Nc2c(C#N)cnc3cc(OCCCN4CCN(C)CC4)c(OC)cc23)c(Cl)cc1Cl : 0.106
Nc1ccc(S(N)(=O)=O)cc1 : 0.067
COCCCN1CCC(NC(=O)c2cc(Cl)c(N)c3c2OCC3)CC1 : 1.78

Hey, can you go through the list below and give me Z-AUC for every item?
1. CCC1=C(C)CN(C(=O)NCCc2ccc(S(=O)(=O)NC(=O)NC3CCC(C)CC3)cc2)C1=O (stereo not drawn)
2. O=Nc1c(-c2c(O)[nH]c3cc(Br)ccc23)[nH]c2ccccc12
3. CCOC(=O)c1c(C)n(C)c2ccc(O)cc12
4. COC(=O)[C@H](Cc1ccccc1)NC(=O)[C@@H](N)CC(=O)O (H-Asp-Phe-OMe)

1. -0.196
2. -0.607
3. 1.13
4. 0.187

###

System: CP305
assay-overview: qHTS profiling for inhibitors of Plasmodium falciparum proliferation (AID 504749); note: nearly all actives have a fitted effect of over 60% in size
experimental-conditions: P. falciparum in erythrocytes, SYBR Green DNA, 72 h; series mostly up to 28.7 µM
Records with an inconclusive call do not appear. Activity calls are given as the source filed them. The call rests on the fitted dose curve; in most records, active means well fitted inhibition curve with a large enough effect; inconclusive means small, poorly fitted or top-dose-only effect; inactive means flat fitted curve, though single readings scatter.
Would you mind answering with one of these outcomes? active, inactive

Examples from the recorded data:
O=C(O)c1cccnc1Nc1cccc(C(F)(F)F)c1 : inactive
O=C(O)CCNC(=O)c1ccc(N=Nc2ccc(O)c(C(=O)O)c2)cc1 : inactive
CCCCCCCCCCCCCCCCCCCCCCO : inactive
CCCOc1ccc2nc(NC(=O)OC)[nH]c2c1 : inactive

Give the logged outcome of this assay for the following molecule: `CC(C)c1ccc2oc3nc(N)c(C(=O)O)cc3c(=O)c2c1` inactive

Per the records of this test, what outcome belongs to `Cc1cc(=O)c2c(O)c3c(O)cc(=O)c4c3c3c(cc(O)c1c23)C(C)(C)C=4O` ? active

###

assay-overview: qHTS of pediatric cancer cell lines to identify multiple opportunities for drug repurposing: Primary screen for A673 cells (AID 1347092); note: nearly all actives have a fitted effect of over 45% in size
experimental-conditions: A673 Ewing sarcoma viability, CellTiter-Glo ATP luminescence, 48 h; series mostly up to 46 µM
Protocol: Drug repurposing or repositioning has been offered as a strategy for drug development in oncology programs. […] We employed a titration-based paradigm (quantitative high-throughput screening or qHTS), where all compounds were tested at multiple concentrations for their effect on cell viability. […] Shen, M et al. Quantitative high-throughput phenotypic screening of pediatric cancer cell lines identifies multiple opportunities for drug repurposing. […]
Records with an inconclusive call do not appear. Active and inactive are the calls of the source. The call rests on the fitted dose curve; in most records, active means well fitted cell-killing curve with a large enough effect; inconclusive means small, poorly fitted or top-dose-only effect; inactive means no such curve, though single readings can be large or run the other way.
The reply should name one outcome from true (active), false (inactive)

Nc1cccc2c1CN(C1CCC(=O)NC1=O)C2=O (stereo not drawn) : false
CCN(CC)CCOc1ccc(Nc2ncc3cc(-c4c(Cl)cccc4Cl)c(=O)n(C)c3n2)cc1 : true
CCCCCCCCCCCCCCCCCCCCCCO : false

Recorded test outcome, item `N=C(N=C(N)N)N1CCOCC1` false

Assay result, entry `C=C(c1ccc(C(=O)O)cc1)c1cc2c(cc1C)C(C)(C)CCC2(C)C` — outcome? false

Entry source: PubChem BioAssay (NCATS)
